// values below are reported self-cleavage
B1: HDV Ribozyme (parent)
chain: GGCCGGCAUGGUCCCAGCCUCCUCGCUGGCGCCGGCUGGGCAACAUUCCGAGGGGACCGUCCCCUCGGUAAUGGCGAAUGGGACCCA

- Variants of: B1
- ASSAY EXPLANATION: self-cleavage, relative activity (ratio to wild type); higher = more cleavage; co-transcriptional
READOUT TYPE: self-cleavage

# VARIANT DESIGNATION, READOUT TYPE, DATA VALUE
rows = [
    ("C18G C64G", "self-cleavage", 0.156),
    ("U27A U46A", "self-cleavage", 0.831),
    ("G17C U60G", "self-cleavage", 0.356),
]
